molecular target: EcDXPS (Escherichia coli, UniProt P77488); construct: made in house; test: DXPS-IspC coupled assay, apparent Ki on wildtype EcDXPS; type: biochemical; conditions: read-out: Ki^app
VALUE TYPE: log10 Ki (log10 of the value in nM)
Reminder: these figures are log10 of reported Ki, in nM before transformation.

Please review the following examples before continuing.
| MOLECULE | log10 Ki |
| --- | --- |
| CC(=O)P(=O)(O)OCCc1cn(C(Cc2ccccc2)Cc2ccccc2)nn1 [Compound 10] | 4.04 |
| CC(=O)P(=O)(O)OCCc1cn([C@@H](Cc2ccccc2)C(c2ccccc2)c2ccccc2)nn1 [Compound 22] | 4.98 |

Task: Could you tell me which log10 Ki is on file for CC(=O)P(=O)(O)OCCc1cn([C@@H](C(=O)O)C23CC4CC(CC(C4)C2)C3)nn1 [Compound 16] ?
Output: 2.56

Task: Another molecule to look at: CC(=O)P(=O)(O)OCCc1cn([C@H](Cc2ccccc2)C(=O)O)nn1 [Compound 1, D-PheTrAP]
Output: 2.41

Task: Another molecule to look at: CC(=O)P(=O)(O)OCCc1cn(C2(C(=O)O)CCCC2)nn1 [Compound 13]
Output: 2.72
